target.of.assay: recombinant human C-proteinase (Homo sapiens, UniProt P13497)
Sequence (P13497 121-986): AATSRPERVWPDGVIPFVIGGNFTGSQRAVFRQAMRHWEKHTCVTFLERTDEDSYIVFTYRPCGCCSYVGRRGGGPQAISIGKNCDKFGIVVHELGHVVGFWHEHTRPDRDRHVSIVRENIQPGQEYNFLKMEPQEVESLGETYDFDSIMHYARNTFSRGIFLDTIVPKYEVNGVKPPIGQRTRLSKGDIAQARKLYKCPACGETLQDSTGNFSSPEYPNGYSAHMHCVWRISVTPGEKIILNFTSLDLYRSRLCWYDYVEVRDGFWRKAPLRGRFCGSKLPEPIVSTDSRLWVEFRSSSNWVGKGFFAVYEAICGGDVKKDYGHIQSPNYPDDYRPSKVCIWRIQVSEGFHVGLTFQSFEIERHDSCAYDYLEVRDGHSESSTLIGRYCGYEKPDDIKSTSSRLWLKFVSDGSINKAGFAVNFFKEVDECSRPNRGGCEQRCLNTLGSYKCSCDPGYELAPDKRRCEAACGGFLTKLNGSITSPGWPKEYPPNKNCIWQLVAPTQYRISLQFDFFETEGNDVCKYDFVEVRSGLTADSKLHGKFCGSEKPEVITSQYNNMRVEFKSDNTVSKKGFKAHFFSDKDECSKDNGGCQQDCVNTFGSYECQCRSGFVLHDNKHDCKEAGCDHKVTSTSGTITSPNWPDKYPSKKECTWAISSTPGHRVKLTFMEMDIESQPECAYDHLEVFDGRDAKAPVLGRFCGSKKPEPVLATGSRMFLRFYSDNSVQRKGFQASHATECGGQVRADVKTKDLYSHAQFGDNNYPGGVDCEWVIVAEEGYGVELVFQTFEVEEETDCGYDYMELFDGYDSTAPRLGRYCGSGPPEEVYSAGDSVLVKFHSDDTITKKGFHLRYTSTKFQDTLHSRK
experimental.protocol: C-Proteinase IC50 assay, fluorogenic peptide
stated.conditions: 50 μM fluorogenic peptide, pH 7.6, 4 hours at 37° C., fluorescence, read-out: C-Proteinase Inhibitor IC50
pIC50: −log10 of the molar value.
assay.metric: pIC50

Previously resolved entries follow.
O=C(CCCC1C(=O)N(C23CC4CC(CC(C4)C2)C3)C(=O)N1Cc1ccco1)NO (stereo not drawn) : 6.64
O=C(CCCC1C(=O)N(C23CC4CC(CC(C4)C2)C3)C(=O)N1CC1CCCCC1)NO (stereo not drawn) : 6.54

a: COc1cccc(CN2C(=O)N(C34CC5CC(CC(C5)C3)C4)C(=O)C2CCCC(=O)NO)c1O (stereo not drawn)
b: O=C(CCCC1C(=O)N(C23CC4CC(CC(C4)C2)C3)C(=O)N1Cc1cccc2c1OCO2)NO (stereo not drawn)
c: O=C(CCCC1C(=O)N(C2CCCCC2)C(=O)N1Cc1ccccc1O)NO (stereo not drawn)
Order by pIC50, ascending. Write the labels, ordered according to the request. c, a, b

a: O=C(CCCC1C(=O)N(C2CCCCC2)C(=O)N1Cc1cccc(O)c1)NO (stereo not drawn)
b: O=C(CCCC1C(=O)N(C23CC4CC(CC(C4)C2)C3)C(=O)N1Cc1ccccn1)NO (stereo not drawn)
Thinking about recorded pIC50 values, which is higher, a or b ? Write down the label attached to your selection. b

1: O=C(CCCC1C(=O)N(C23CC4CC(CC(C4)C2)C3)C(=O)N1Cc1cccc(O)c1)NO (stereo not drawn)
2: O=C(CCCC1C(=O)N(C23CC4CC(CC(C4)C2)C3)C(=O)N1Cc1ccccc1O)NO (stereo not drawn)
3: COc1ccccc1CN1C(=O)N(C23CC4CC(CC(C4)C2)C3)C(=O)C1CCCC(=O)NO (stereo not drawn)
4: O=C(CCCC1C(=O)N(C23CC4CC(CC(C4)C2)C3)C(=O)N1Cc1cc(O)ccc1O)NO (stereo not drawn)
5: O=C(CCCC1C(=O)N(C2CCCCC2)C(=O)N1Cc1ccccc1)NO (stereo not drawn)
// ranking: key=pIC50, reverse=True Returns: the labels listed in the requested order. 4, 1, 2, 3, 5
(4: 7.23, 1: 6.85, 2: 6.57, 3: 6.22, 5: 5.48)

a: O=C(CCCC1C(=O)N(C23CC4CC(CC(C4)C2)C3)C(=O)N1CC1CC1)NO (stereo not drawn)
b: O=C(CCCC1C(=O)N(C23CC4CC(CC(C4)C2)C3)C(=O)N1Cc1ccccc1)NO (stereo not drawn)
Pick the one with the larger pIC50: a vs b Answer with the label corresponding to your selection. a
(a: 6.37, b: 6.11)
